Exercise: state measured log10(IC50) for each of the compounds provided.
# system: NAD-dependent protein deacetylase sirtuin-2 (Homo sapiens, UniProt Q8IXJ6)
# Sequence (Q8IXJ6 whole entry, the tested form may be a part): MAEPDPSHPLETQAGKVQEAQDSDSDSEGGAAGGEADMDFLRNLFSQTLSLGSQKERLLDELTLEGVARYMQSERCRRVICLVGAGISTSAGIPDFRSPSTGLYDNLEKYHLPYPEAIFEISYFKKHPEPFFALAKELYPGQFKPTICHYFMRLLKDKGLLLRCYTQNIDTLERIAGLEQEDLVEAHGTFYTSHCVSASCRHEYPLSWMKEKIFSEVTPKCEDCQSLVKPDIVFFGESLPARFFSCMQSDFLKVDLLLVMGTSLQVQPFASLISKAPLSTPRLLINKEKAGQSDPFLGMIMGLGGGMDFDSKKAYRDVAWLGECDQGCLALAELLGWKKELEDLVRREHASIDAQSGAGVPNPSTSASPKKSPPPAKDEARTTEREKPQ
# test method notes: Inhibition of N-terminal his6-tagged human SIRT2 (25 to 389 amino acids) using ZMAL as substrate after 4 hrs by fluorescence-based microplate reader method
Log10 applied to IC50; unit prior to transform: µM.

Parameters: items (list). Returns: log10(IC50) for each item.
1. Cc1cc(C)nc(S[C@H](C)C(=O)Nc2ncc(Cc3cccc4ccccc34)s2)n1
2. Cc1cc(C)nc(S[C@@H](C)C(=O)Nc2ncc(Cc3cccc4ccccc34)s2)n1
3. Cc1cccc(Cc2cnc(NC(=O)CSc3nc(C)cc(C)n3)s2)c1
4. NC(=O)c1ccc[n+](CC(=O)Nc2ncc(Cc3cccc4ccccc34)s2)c1
5. Cc1cc(C)nc(SCC(=O)Nc2nnc(C(F)(F)F)s2)n1
6. Cc1nc(SCC(=O)Nc2ncc(Cc3cccc4ccccc34)s2)nc(C)c1C
7. Cc1cc(C)nc(SCC(=O)Nc2ncc(Cc3cccc4ccc(Cl)cc34)s2)n1
8. O=C(CSc1ncccn1)Nc1ncc(Cc2cccc3ccccc23)s1

1. 0.99
2. -0.59
3. 0.21
4. 2.46
5. 2.70
6. 1.18
7. -0.74
8. 0.37

Parameters: items (list). Returns: log10(IC50) for each item.
1. Cc1cc(C)nc(SC(C)C(=O)Nc2ncc(Cc3cccc4ccccc34)s2)n1 (racemic)
2. Cc1ccc(Cc2cnc(NC(=O)CSc3nc(C)cc(C)n3)s2)cc1
3. Cc1cc(C)nc(SCC(=O)Nc2ncc(Cc3ccc(-c4ccccc4)cc3)s2)n1
4. Cc1cc(C)nc(SC(C)C(=O)Nc2ncc(Cc3cccc4ccc(Cl)cc34)s2)n1 (racemic)

[-0.38, 0.67, 2.21, -0.27]

Parameters: items (list). Returns: log10(IC50) for each item.
1. Cc1cc(C)nc(SCC(=O)Nc2ncc(Cc3ccc(Cl)cc3)s2)n1
2. Cc1cc(C)nc(SCC(=O)Nc2ncc(Cc3cccc4ccc(Br)cc34)s2)n1
3. CCOc1ccc2nc(NC(=O)CSc3nc(C)cc(C)n3)sc2c1
4. CCC(Sc1nc(C)cc(C)n1)C(=O)Nc1ncc(Cc2cccc3ccc(Cl)cc23)s1 (racemic)
5. CCC(Sc1nc(C)cc(C)n1)C(=O)Nc1ncc(Cc2cccc3ccccc23)s1 (racemic)
6. CC(Sc1ncccn1)C(=O)Nc1ncc(Cc2cccc3ccccc23)s1 (racemic)
7. O=C(CSc1cccc(O)c1)Nc1ncc(Cc2cccc3ccccc23)s1

0.53
-0.68
1.89
-0.49
-0.27
0.28
2.16

Parameters: items (list). Returns: log10(IC50) for each item.
1. Cc1cc(C)nc(SCC(=O)Nc2ncc(Cc3c(C)ccc4ccccc34)s2)n1
2. Cc1cc(C)nc(SCC(=O)Nc2nnc(Cc3ccc(Br)cc3)s2)n1
3. CCCc1cc(O)nc(SCC(=O)Nc2ncc(Cc3cccc4ccccc34)s2)n1
4. CCOc1cccc(Cc2cnc(NC(=O)CSc3nc(C)cc(C)n3)s2)c1

1. -0.51
2. 2.23
3. 2.10
4. 0.12
